Target: GST-JAK2(808-1132) (Homo sapiens, UniProt O60674)
Construct: GST-JAK2(808-1132); purchased Invitrogen (Carlsbad, USA) #4288
Sequence (O60674 808-1132): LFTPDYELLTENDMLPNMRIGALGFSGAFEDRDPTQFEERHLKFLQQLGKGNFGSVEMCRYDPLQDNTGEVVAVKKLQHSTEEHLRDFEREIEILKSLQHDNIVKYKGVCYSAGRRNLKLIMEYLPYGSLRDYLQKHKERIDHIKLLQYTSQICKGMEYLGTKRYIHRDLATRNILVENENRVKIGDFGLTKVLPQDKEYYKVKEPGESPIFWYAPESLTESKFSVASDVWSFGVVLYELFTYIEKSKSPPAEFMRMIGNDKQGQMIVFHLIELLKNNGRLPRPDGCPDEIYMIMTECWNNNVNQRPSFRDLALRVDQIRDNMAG
Assay: JAK2 kinase assay (Caliper mobility shift, LabChip 3000)
Type: biochemical
Procedure: All four kinases of the JAK/TYK-kinase family were used as purified recombinant GST-fusion proteins, containing the active kinase domains. GST-JAK1 (866-1154), GST-JAK3(811-1124), and GST-TYK2(888-1187) were expressed and purified by affinity chromatography at the EPK biology unit. […] The terminated reactions were transferred to the Caliper LabChip 3000 reader and the turnover of each reaction was measured by determining the substrate/product ratio. […]
measurementType: pIC50
Answer as the number alone; pIC50 is minus log10 of concentration in mol/L.

Exercise: Could you share what pIC50 was measured for CC(C)Oc1ccc(Nc2ncc3ccn(-c4cc(F)c(C(=O)N5CCOCC5)c(F)c4)c3n2)cc1 , tested on GST-JAK2(808-1132) (Homo sapiens, UniProt O60674)?
Key: 8.39

Exercise: Could you share what pIC50 was measured for C[C@@H]1CN[C@@H](C)CN1c1ccc(Nc2ncc3ccn(-c4cc(F)c(CN5CCOCC5)c(F)c4)c3n2)cn1 (racemic) , tested on GST-JAK2(808-1132) (Homo sapiens, UniProt O60674)?
Key: 8.51

Exercise: Could you share what pIC50 was measured for CC(=O)c1ccc(-n2ccc3cnc(Nc4ccc(OC(C)C)cc4)nc32)cc1 , tested on GST-JAK2(808-1132) (Homo sapiens, UniProt O60674)?
Key: 8.10

Exercise: Could you share what pIC50 was measured for CC(C)Oc1ccc(Nc2ncc3ccn(-c4cc(F)c(CN5CCOCC5)c(F)c4)c3n2)cc1 , tested on GST-JAK2(808-1132) (Homo sapiens, UniProt O60674)?
Key: 7.96

Exercise: Could you share what pIC50 was measured for C[C@@H]1CN(Cc2cc(Nc3ncc4ccn(-c5cc(F)c(CN6CCOCC6)c(F)c5)c4n3)ccn2)C[C@H](C)N1 , tested on GST-JAK2(808-1132) (Homo sapiens, UniProt O60674)?
Key: 8.31

Exercise: Could you share what pIC50 was measured for COc1cc(Nc2ncc3ccn(-c4ccc(C(=O)N5CCOCC5)c(F)c4)c3n2)ccc1F , tested on GST-JAK2(808-1132) (Homo sapiens, UniProt O60674)?
Key: 8.24

Exercise: Could you share what pIC50 was measured for Cc1ccc(Nc2ncc3ccn(-c4ccc(C(=O)N5CCOCC5)c(F)c4)c3n2)nc1C , tested on GST-JAK2(808-1132) (Homo sapiens, UniProt O60674)?
Key: 6.54

Exercise: Could you share what pIC50 was measured for O=C(c1cc(Nc2ncc3ccn(-c4cc(F)c(CN5CCOCC5)c(F)c4)c3n2)ccn1)N1CCOC2(COC2)C1 , tested on GST-JAK2(808-1132) (Homo sapiens, UniProt O60674)?
Key: 7.62

Exercise: Could you share what pIC50 was measured for COc1cc(Nc2ncc3cc(C)n(-c4ccc(CC(=O)N5CCN(C)CC5)cc4)c3n2)ccc1F , tested on GST-JAK2(808-1132) (Homo sapiens, UniProt O60674)?
Key: 6.52

Exercise: Could you share what pIC50 was measured for Cc1cc(Nc2ncc3ccn(-c4ccc(C5(C(=O)N6CCN(C)CC6)CC5)cc4)c3n2)ccc1F , tested on GST-JAK2(808-1132) (Homo sapiens, UniProt O60674)?
Key: 8.48

Exercise: Could you share what pIC50 was measured for Cc1ccc(Nc2ncc3ccn(-c4ccc(C(=O)N5CCN(C)CC5)c(F)c4)c3n2)cc1C , tested on GST-JAK2(808-1132) (Homo sapiens, UniProt O60674)?
Key: 6.70

Exercise: Could you share what pIC50 was measured for CC(=O)c1ccc(Nc2ncc3ccn(-c4ccc(S(C)(=O)=O)cc4)c3n2)cc1 , tested on GST-JAK2(808-1132) (Homo sapiens, UniProt O60674)?
Key: 8.32

Exercise: Could you share what pIC50 was measured for CC(C)Oc1ccc(Nc2ncc3ccn(-c4ccc(CN5CCOCC5)c(Cl)c4)c3n2)cc1 , tested on GST-JAK2(808-1132) (Homo sapiens, UniProt O60674)?
Key: 7.87

Exercise: Could you share what pIC50 was measured for COc1ccc(Nc2ncc3ccn(-c4ccc(S(C)(=O)=O)cc4)c3n2)cc1 , tested on GST-JAK2(808-1132) (Homo sapiens, UniProt O60674)?
Key: 8.41

Exercise: Could you share what pIC50 was measured for N#Cc1ccc(Nc2ncc3ccn(-c4ccc(C(=O)N5CCOCC5)c(F)c4)c3n2)cn1 , tested on GST-JAK2(808-1132) (Homo sapiens, UniProt O60674)?
Key: 7.25

Exercise: Could you share what pIC50 was measured for Cc1ccc(Nc2ncc3ccn(-c4ccc(S(C)(=O)=O)cc4)c3n2)cc1CN1CCOCC1 , tested on GST-JAK2(808-1132) (Homo sapiens, UniProt O60674)?
Key: 7.80

Exercise: Could you share what pIC50 was measured for COc1cc(Nc2ncc3ccn(-c4ccc(S(C)(=O)=O)cc4)c3n2)cc(OC)c1 , tested on GST-JAK2(808-1132) (Homo sapiens, UniProt O60674)?
Key: 8.44

Exercise: Could you share what pIC50 was measured for CN1CCN(c2ccc(Nc3ncc4ccn(-c5cc(F)c(CN6CCOCC6)c(F)c5)c4n3)nc2)CC1 , tested on GST-JAK2(808-1132) (Homo sapiens, UniProt O60674)?
Key: 7.31

Exercise: Could you share what pIC50 was measured for CN(C)c1ccc(Nc2ncc3ccn(-c4ccc(S(C)(=O)=O)cc4)c3n2)cc1 , tested on GST-JAK2(808-1132) (Homo sapiens, UniProt O60674)?
Key: 7.64

Exercise: Could you share what pIC50 was measured for Cc1ccc(Nc2ncc3ccn(-c4ccc(S(=O)(=O)NC(C)(C)C)cc4)c3n2)cc1CN1CCN(C)CC1 , tested on GST-JAK2(808-1132) (Homo sapiens, UniProt O60674)?
Key: 8.31
